system: M14 melanoma; test: NCI tumour cell line growth inhibition, 48 h
Assign TGI to each entry below.
// note: answer is a bare numeric in µM

Exercise: Look up TGI for this compound: "CCCNC1=C2C[C@@H](C)C[C@@H](OC)[C@@H](OC(=O)CCCN)[C@H](C)/C=C(\C)[C@@H](OC(N)=O)[C@H](OC)/C=C\C=C(/C)C(=O)NC(=CC1=O)C2=O"
Key: 32.3

Exercise: Thanks! And "C/C(NNC(=O)c1ccccc1O)=C1\C=Nc2ccccc2S1" ?
Key: 31.1

----------
system: KM12 colon; assay: NCI tumour cell line growth inhibition, 48 h
Quantity Kind: TGI

Exercise: Look up TGI for this compound: C[C@@H]1CC[C@H]2[C@@H](C)C(O)O[C@@H]3O[C@]4(C)CC[C@@H]1[C@]32OO4 (stereo not given in full)
Key: 8.78 µM

Exercise: Thanks! And "Cc1cc(S(=O)(=O)/N=C(\N)Nc2cccc(O)c2)c(SCc2ccccc2)cc1Cl" ?
Key: 54.4 µM

Exercise: Thanks! And "COc1ccc(-c2nc(-c3ccc(OC)cc3)n(-c3ccccc3)n2)cc1" ?
Key: > 100 µM

Exercise: Thanks! And "CCOC(=O)COc1cc(-c2ccccc2F)nc2cc3c(cc12)OCO3" ?
Key: > 100 µM

Exercise: Thanks! And "O=C(Nc1ccccc1)c1cc2ccccc2c(N=Nc2cccc([N+](=O)[O-])c2)c1O" ?
Key: > 100 µM

Exercise: Thanks! And "O/N=C1/CCC/C1=C\c1ccccc1" ?
Key: > 100 µM

Exercise: Thanks! And C[C@@H](O)[C@@H](C)Oc1nc(Nc2ccc(S(=N)(=O)C3CC3)cc2)ncc1C(F)(F)F (stereo not given in full) ?
Key: 1.16 µM

Exercise: Thanks! And "O=[N+]([O-])c1cc(C2(N3CCCCC3)CCCCC2)sc1Br" ?
Key: 20.2 µM

Exercise: Thanks! And "C=C1CC[C@@]2(C)[C@@H]([C@@H]1C)[C@H]1CC[C@@H]3[C@@]4(C)CC[C@H](O)C(C)(C)[C@@H]4CC[C@@]3(C)[C@]1(C)C[C@@H]2O" ?
Key: 15.8 µM

Exercise: Thanks! And Cc1cc(=O)oc2c(C3=NN(C=O)C(c4ccccc4)C3)c(O)ccc12 (stereo not given) ?
Key: > 100 µM

Exercise: Thanks! And COc1cc(C2CC(C)(N3CCOCC3)Oc3cc4c(cc32)OCO4)cc(OC)c1OC (stereo not given) ?
Key: > 100 µM

Exercise: Thanks! And CC(=O)OC1C[C@H]2C(OC(=O)c3ccccc3)C3C4(OC(C)=O)COC4C[C@H](OC(C)=O)[C@@]3(C)C(OC(C)=O)[C@H](OC(C)=O)C(=C1C)C2(C)C (stereo not given in full) ?
Key: > 100 µM

Exercise: Thanks! And "Cc1sc2c(c1C)C(=O)c1cccn1-2" ?
Key: > 100 µM

Exercise: Thanks! And "N=c1c2sc3nc4ccccc4n3c2ncn1Cc1ccccc1" ?
Key: > 100 µM

Exercise: Thanks! And "C=CC(=O)N[C@@H]1CN(c2nc(Nc3cn(C)nc3OC)c3ncn(C)c3n2)C[C@H]1F" ?
Key: > 100 µM

Exercise: Thanks! And "c1ccc(CN2CCC(=NN3CCCCC3)CC2)cc1" ?
Key: > 100 µM

Exercise: Thanks! And "O=C(Nc1ccc(OS(=O)(=O)c2ccc(F)cc2)cc1)C12CC3CC(CC(C3)C1)C2" ?
Key: > 100 µM

Exercise: Thanks! And "Clc1ccc(Nc2ncco2)cc1Cl" ?
Key: > 10 µM

Exercise: Thanks! And CCOC(=O)C1(CC(=O)O)CCCC1=O (stereo not given) ?
Key: > 100 µM

Exercise: Thanks! And "COC(=O)c1cc(-c2ccc3ccccc3c2)[nH]c(=O)c1C#N" ?
Key: > 100 µM
